Data origin, for the record: paper PMC7044166

# EXPERIMENT SUMMARY: Stability of DSV, TAM and TOH in rat plasma under storage and treatment conditions
# Assay type: in vitro ADME
# CONDITION: Wistar, rat, rat plasma (spiked QC samples), rat plasma; 25 °C, 6 h; high concentration level (800, 400, 400 ng/mL for DSV, TAM, TOH); six determinations; read-out: Short-term stability, mean recovery (%) ± RSD
Provide the reported recovery at 6 h of each item.
Respond numerically; units are % and should not be typed.

Identify recovery at 6 h associated with the compound `CC/C(=C(\c1ccccc1)c1ccc(OCCN(C)C)cc1)c1ccccc1` 96.8

Identify recovery at 6 h associated with the compound `COc1c(-c2ccc3cc(NS(C)(=O)=O)ccc3c2)cc(-n2ccc(=O)[nH]c2=O)cc1C(C)(C)C` 95

Identify recovery at 6 h associated with the compound CC/C(=C(\c1ccc(O)cc1)c1ccc(OCCN(C)C)cc1)c1ccccc1 [TOH, 4-hydroxy tamoxifen] 98.9
